# system: UniProtKB P25099
# assay.info: Binding affinity for adenosine A1 receptor as displacement of [3H]R-PIA from rat brain membranes
# Type: cell membranes, Membrane
observable: Ki (µM)
Write it as a number; the unit µM goes unstated.

## Task Fill in reported Ki for this entry: CCCO/C(O)=C1\C(C)=NC(c2ccccc2)=C(C(=O)OCC)C1C (stereo unspecified)
## Result 17.4

====

# system: Adenosine receptor A3 (Homo sapiens)
# assay.info: Binding affinity towards adenosine A3 receptor by measuring its ability to displace [125I]AB-MECA binding to membranes prepared from HEK293 cells
# Type: cell membranes
Binary label based on Ki with cut-off 0.1 µM: below gives y, not below gives n.

## Task Does the reported Ki of CCCCc1nc(-c2ccccc2)c(C(=O)OCC)c(CC)c1C(=O)SCC stay below 0.1 µM?
## Result y

## Task Does CCCOC(=O)c1c(-c2ccccc2)nc(CC)c(C(=O)SCC)c1CC have Ki strictly under 0.1 µM?
## Result y

## Task Given CCOC(=O)c1c(C)nc(-c2ccccc2)c(C(=O)OCC)c1CC , is recorded Ki strictly lower than 0.1 µM?
## Result n

***
## Task Is Ki strictly under 0.1 µM for the entry CCCOC(=O)c1c(-c2ccccc2)nc(CC)c(C(=O)SCC)c1CCC ?
## Result y

## Task Check if Ki falls below 0.1 µM for CCOC(=O)C1=C(c2ccccc2)N=C(C)/C(=C(/O)OCC)C1C=O (stereo not drawn) .
## Result n

## Task Please determine if CCOC(=O)c1c(-c2ccccc2)nc(CC)c(C(=O)SCC)c1CC is below 0.1 µM in terms of Ki.
## Result y

## Task Here's an entry: CCSC(=O)c1c(CC)nc(-c2ccccc2)c(C(=O)OCCO)c1CC . Is its Ki below 0.1 µM?
## Result n

## Task Here's an entry: CCS/C(O)=C1\C(C)=NC(c2ccccc2)=C(C(=O)OCc2ccccc2)C1CC (stereo not drawn) . Is its Ki below 0.1 µM?
## Result n

====

# system: Adenosine receptor A1 (Rattus norvegicus) (UniProt P25099)
# assay.info: Binding affinity towards adenosine A1 receptor by measuring its ability to displace [3H]-R-PIA in rat brain membranes at a concentration of 10e-4 M
# Format: cell membranes
Please note: Condition met applies when inhibition is 10% or greater, and Condition not met applies otherwise.

Please review the entries below; each comes with its answer.
## Task Record CCOC(=O)c1c(C2CCCC2)nc(CC)c(C(=O)SCC)c1CC ; criterion: inhibition no lower than 10%. Met?
## Result Condition met

## Task Check the entry CCOC(=O)C1=C(c2ccccc2)N=C(C)/C(=C(/O)OCC)C1C=O (configuration not stated) : does inhibition equal or exceed 10%?
## Result Condition met

## Task Say whether CCCc1c(C(=O)SCC)c(C)nc(-c2ccccc2)c1C(=O)OCC shows inhibition of 10% or more.
## Result Condition met

## Task Answer whether inhibition of CCOC(=O)c1c(-c2ccccc2)nc(CC)c(C(=O)O)c1CC is greater than or equal to 10%.
## Result Condition not met

Others:
## Task // inclusive: inhibition at least 10%? input: CCCc1nc(-c2ccccc2)c(C(=O)OCC)c(CC)c1C(=O)SCC
## Result Condition met

## Task Is inhibition for CCOC(=O)c1c(CC)nc(-c2ccccc2)c(C(=O)OCC)c1C at or above 10%?
## Result Condition met

====

# System: HEK293
# assay.info: Selectivity for binding affinity towards A1 adenosine receptor in rat brain membrane and human A3 receptor expressed in HEK cells
# Format: cell-based
Attribute: Ratio

## Task // fetch Ratio; item: CCOC(=O)c1c(-c2ccccc2)nc(CC)c(C(=O)SCC)c1CC ; system: HEK293
## Result > 3000

## Task Please tell me the measured Ratio for CCCC1=NC(c2ccccc2)=C(C(=O)OCC)C(CC)/C1=C(\O)SCC (stereo not given) ; system: HEK293.
## Result > 20

## Task Return reported Ratio for target or system HEK293, item CCS/C(O)=C1\C(C)=NC(c2ccccc2)=C(C(=O)OCc2ccccc2)C1CC (stereo not given) .
## Result > 50

## Task Report its Ratio with HEK293 as the test system: CCOC(=O)c1c(-c2ccccc2)nc(C2CCC2)c(C(=O)SCC)c1CC
## Result > 500

From here, focus on the item given below.
## Task Give Ratio for CCCc1c(C(=O)SCC)c(C)nc(-c2ccccc2)c1C(=O)OCC tested on HEK293.
## Result > 700

====

Ki reference
# system: Adenosine receptor A3 (Homo sapiens) (UniProt P0DMS8)
# Sequence (whole entry): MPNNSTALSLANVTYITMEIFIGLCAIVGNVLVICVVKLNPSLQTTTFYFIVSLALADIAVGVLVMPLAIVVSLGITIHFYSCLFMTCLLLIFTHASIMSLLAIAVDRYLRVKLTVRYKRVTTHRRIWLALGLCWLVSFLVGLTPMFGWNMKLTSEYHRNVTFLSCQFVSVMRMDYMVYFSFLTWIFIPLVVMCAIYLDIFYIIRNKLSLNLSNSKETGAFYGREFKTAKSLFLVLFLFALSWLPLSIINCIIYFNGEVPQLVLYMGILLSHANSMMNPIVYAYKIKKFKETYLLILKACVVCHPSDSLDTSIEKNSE
# assay.info: Binding affinity towards adenosine A3 receptor by measuring its ability to displace [125I]AB-MECA binding to membranes prepared from HEK293 cells
# Type: cell membranes
The reply should be a number in µM, with the unit left off.

## Task For Adenosine receptor A3 (Homo sapiens) (UniProt P0DMS8), give the measured Ki of the entry CCCOC(=O)c1c(C)nc(-c2ccccc2)c(C(=O)OCC)c1C
## Result 0.215

## Task Under Adenosine receptor A3 (Homo sapiens) (UniProt P0DMS8), report Ki for CCOC(=O)c1c(-c2cccc(Cl)c2)nc(CC)c(C(=O)SCC)c1CC
## Result 0.0134

Others:
## Task Under Adenosine receptor A3 (Homo sapiens) (UniProt P0DMS8), report Ki for CCOC(=O)C1=C(c2ccccc2)N=C(CC)/C(=C(/O)SCC)C1CC (stereo not given)
## Result 0.907

## Task # assay system Adenosine receptor A3 (Homo sapiens) (UniProt P0DMS8): give Ki of CCCc1nc(-c2ccccc2)c(C(=O)OCC)c(CC)c1C(=O)SCC
## Result 0.0333

## Task System Adenosine receptor A3 (Homo sapiens) (UniProt P0DMS8). Read-out Ki. Item CCOC(=O)c1c(-c2ccccc2)nc(C)c(C(=O)SCC)c1CC . Report value.
## Result 0.143

## Task Param request: Ki | system Adenosine receptor A3 (Homo sapiens) (UniProt P0DMS8) | item CCOC(=O)c1c(C)nc(-c2ccccc2)c(C(=O)OCC)c1C(OC)OC
## Result 0.783

## Task Give Adenosine receptor A3 (Homo sapiens) (UniProt P0DMS8) Ki for the following compound: CCCOC(=O)c1c(-c2cccc(Cl)c2)nc(CC)c(C(=O)SCCC)c1CC
## Result 0.00794

====

# system: Adenosine receptor A1 (Rattus norvegicus) (UniProt P25099)
# Sequence (whole entry): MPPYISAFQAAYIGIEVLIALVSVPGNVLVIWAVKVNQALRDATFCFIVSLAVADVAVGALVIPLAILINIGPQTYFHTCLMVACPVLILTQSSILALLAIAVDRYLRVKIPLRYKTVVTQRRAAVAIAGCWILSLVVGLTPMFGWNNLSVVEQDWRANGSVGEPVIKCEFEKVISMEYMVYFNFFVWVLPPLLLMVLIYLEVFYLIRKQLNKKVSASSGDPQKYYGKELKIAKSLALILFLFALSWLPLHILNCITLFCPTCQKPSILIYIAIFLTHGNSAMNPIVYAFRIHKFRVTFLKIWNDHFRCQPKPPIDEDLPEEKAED
# assay.info: Binding affinity towards adenosine A1 receptor by measuring its ability to displace [3H]-R-PIA in rat brain membranes at a concentration of 10e-4 M
# Assay type: cell membranes
observable: inhibition (%)
Reply with just the number (in %).

Known inhibition results, listed for orientation:
## Task Please indicate inhibition recorded for CCOC(=O)C1=C(c2ccccc2)N=C(C)/C(=C(/O)SCCOC)C1CC (stereo unspecified)
## Result 36

## Task Given the molecule CCS/C(O)=C1\C(C)=NC(c2ccccc2)=C(C(=O)OCc2ccccc2)C1CC (stereo unspecified) , write its reported inhibition.
## Result 45

## Task Provide measured inhibition value, entry: CCOC(=O)c1c(C)nc(-c2ccccc2)c(C(=O)OCC)c1C=O
## Result 9.56

## Task Please list inhibition recorded for the molecule CCOC(=O)c1c(-c2ccccc2)nc(CC)c(C(=O)SCC)c1CC
## Result 41

## Task Please give measured inhibition of the following entry: CCCOC(=O)c1c(C)nc(-c2ccccc2)c(C(=O)OCC)c1C
## Result 5.05

New cases:
## Task Quick one: give measured inhibition for CCCOC(=O)c1c(-c2ccccc2)nc(CC)c(C(=O)SCC)c1CC
## Result 7.77

## Task Assign inhibition to the following record: CCCSC(=O)c1c(CC)nc(-c2ccccc2)c(C(=O)OCC)c1CC
## Result 8.22

## Task Please give measured inhibition of the following entry: CCSC(=O)c1c(CC)nc(-c2ccccc2)c(C(=O)OCCO)c1CC
## Result 17.4

## Task Read off the recorded inhibition for CCOC(=O)c1c(-c2ccccc2)nc(CCOC)c(C(=O)SCC)c1CC
## Result 10.1

## Task Hello, please tell me recorded inhibition for this one: CCOC(=O)C1=C(c2ccccc2)N=C(CC)/C(=C(/O)OCC)C1C (stereo unspecified)
## Result 20

## Task Look up inhibition of CCSC(=O)c1c(C)nc(-c2ccccc2)c(C(=O)Oc2ccccc2)c1CC and report it.
## Result 20

## Task Return inhibition (reported value) for this molecule: CCOC(=O)c1c(C)nc(-c2ccccc2)c(C(=O)OCC)c1CC
## Result 3.36

## Task Give a short answer stating reported inhibition for CCCC1=NC(c2ccccc2)=C(C(=O)OCC)C(CC)/C1=C(\O)SCC (stereo unspecified) .
## Result 26

## Task Indicate the recorded inhibition value for this molecule: CCOC(=O)c1c(-c2cccc(Cl)c2)nc(CC)c(C(=O)SCC)c1CC
## Result 8.2

## Task For CCCCc1nc(-c2ccccc2)c(C(=O)OCC)c(CC)c1C(=O)SCC , write its inhibition.
## Result 40.3

## Task Using known records, supply inhibition for CCOC(=O)C1=C(C)NC(C2CCCCC2)=C(C(=O)OCc2ccccc2)C1C#Cc1ccccc1 (stereo unspecified)
## Result 22
